Attribution: the RNAGym collection of RNA variant scans (doi:10.7554/elife.80360)

B1: HDV Ribozyme (parent)
chain: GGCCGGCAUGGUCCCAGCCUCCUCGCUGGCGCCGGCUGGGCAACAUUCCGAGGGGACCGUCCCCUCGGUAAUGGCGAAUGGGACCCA

Variants of: B1
runDescription: self-cleavage, relative activity (ratio to wild type); higher = more cleavage; co-transcriptional
Assign Y to entries whose self-cleavage meets or exceeds 0.2; assign N to the rest.

Solved entries:
{"residueChange": "C63A U79C", "answerLabel": "Y"}
{"residueChange": "A51U G53U", "answerLabel": "Y"}
{"residueChange": "U12A C85G", "answerLabel": "Y"}
{"residueChange": "A77U G80C", "answerLabel": "N"}
{"residueChange": "C4A A71C", "answerLabel": "N"}
{"residueChange": "C24U A78G", "answerLabel": "Y"}

Decide: is the reported value of self-cleavage for G11U G52A equal to or greater than 0.2?
Y

Decide: is the reported value of self-cleavage for U9A G28C equal to or greater than 0.2?
N

Decide: is the reported value of self-cleavage for G34U A43C equal to or greater than 0.2?
Y
